Where these numbers come from: BigSolDB 2.1

run parameters: in n-propanol, 298.15 K
measurement type: solubility (mole fraction)
The reply should be a number, written without any unit.

Query :: Quick one: solubility (mole fraction) for Cn1c(=O)cc(N2CCC[C@@H](N)C2)n(Cc2ccccc2C#N)c1=O.O=C(O)c1ccccc1 ?
Result :: 0.000209

====

run parameters: in ethanol, 313.15 K
measurement type: solubility (mole fraction)

Query :: Need solubility (mole fraction) of Cn1c(=O)cc(N2CCC[C@@H](N)C2)n(Cc2ccccc2C#N)c1=O.O=C(O)c1ccccc1 , thanks.
Result :: 0.00147

====

run parameters: in ethanol, 318.15 K
measurement type: solubility (mole fraction)
Quick one: just the number, no unit, thanks!

Query :: I have this compound here, Cn1c(=O)cc(N2CCC[C@@H](N)C2)n(Cc2ccccc2C#N)c1=O.O=C(O)c1ccccc1 , and I need its recorded solubility (mole fraction).
Result :: 0.00176
